Data origin, for the record: patent US20240360126A1

# ASSAY_SYSTEM: hERG K+ channel (Homo sapiens, UniProt Q12809)
# Construct: expressed in transfected cells; host or cells: CHO (Chinese hamster ovary)
# Sequence (Q12809 whole entry): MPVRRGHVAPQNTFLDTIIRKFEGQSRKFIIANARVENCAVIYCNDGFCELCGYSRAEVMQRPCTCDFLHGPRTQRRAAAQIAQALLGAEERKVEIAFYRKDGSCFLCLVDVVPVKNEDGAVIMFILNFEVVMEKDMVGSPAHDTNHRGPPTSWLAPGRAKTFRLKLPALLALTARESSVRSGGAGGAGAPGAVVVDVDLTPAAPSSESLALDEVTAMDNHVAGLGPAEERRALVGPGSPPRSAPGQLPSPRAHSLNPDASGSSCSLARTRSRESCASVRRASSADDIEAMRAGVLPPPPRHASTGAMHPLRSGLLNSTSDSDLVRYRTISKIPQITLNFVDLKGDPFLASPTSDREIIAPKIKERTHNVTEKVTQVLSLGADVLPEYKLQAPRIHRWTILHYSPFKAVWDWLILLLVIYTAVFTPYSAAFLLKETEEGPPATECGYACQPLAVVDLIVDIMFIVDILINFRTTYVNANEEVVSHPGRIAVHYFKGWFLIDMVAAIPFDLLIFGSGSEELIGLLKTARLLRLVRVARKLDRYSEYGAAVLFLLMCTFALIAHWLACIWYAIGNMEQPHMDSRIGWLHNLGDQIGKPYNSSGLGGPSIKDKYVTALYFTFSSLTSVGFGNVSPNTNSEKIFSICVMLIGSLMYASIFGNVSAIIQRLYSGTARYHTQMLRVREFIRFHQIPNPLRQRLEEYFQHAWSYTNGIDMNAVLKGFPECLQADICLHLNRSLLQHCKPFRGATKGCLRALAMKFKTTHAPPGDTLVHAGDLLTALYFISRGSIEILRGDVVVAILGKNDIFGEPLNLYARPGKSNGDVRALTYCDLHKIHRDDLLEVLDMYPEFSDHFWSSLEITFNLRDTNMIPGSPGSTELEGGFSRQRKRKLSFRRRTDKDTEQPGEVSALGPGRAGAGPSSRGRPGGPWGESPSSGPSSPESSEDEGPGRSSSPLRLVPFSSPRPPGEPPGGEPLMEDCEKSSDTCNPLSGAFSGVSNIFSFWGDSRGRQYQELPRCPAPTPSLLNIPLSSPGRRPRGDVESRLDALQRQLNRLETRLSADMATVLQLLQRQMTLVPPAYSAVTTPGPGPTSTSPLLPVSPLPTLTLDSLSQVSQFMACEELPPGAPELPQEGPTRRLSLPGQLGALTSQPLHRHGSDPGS
# ASSAY_PROTOCOL: hERG channel inhibition assay (patch-clamp, CHO-hERG cells)
# Format: cell-based
# STATED_CONDITIONS: safety ratio
# hERG IC20/TLR8 IC50 listing for each entry below
// return a plain number; no unit text

Below, 3 compounds whose answers are already recorded.
[[record]]
smiles_entry = "Cc1cc(N2CC[C@@H](c3ncc(N4C[C@H]5NCCO[C@@H]5C4)cc3C)[C@H](C)C2)c2cnn(C)c2n1"
measured_result = 1366.7

[[record]]
smiles_entry = "COC[C@H]1CN(c2cnc([C@@H]3CCN(c4cc(C)nc5c4cnn5C)C[C@H]3C)c(C)c2)CCN1"
measured_result = 550.0

[[record]]
smiles_entry = "Cc1cc(N2CCC(c3cnc(N4CCNCC4)nc3C)CC2)c2cnn(C)c2n1"
measured_result = 178.6


Attention now turns to another entry.
Query: Would you mind telling me what hERG IC20/TLR8 IC50 value was observed for `Cc1cc(N2CC[C@@H](c3ncc(N4CCOC[C@@H](N)C4)cc3C)[C@H](C)C2)c2cnn(C)c2n1` ?
Result: 3200.0
